ASSAYED_SYSTEM: Protein (Hepatitis B virus genotype D subtype ayw)
Sequence (P03146 whole entry): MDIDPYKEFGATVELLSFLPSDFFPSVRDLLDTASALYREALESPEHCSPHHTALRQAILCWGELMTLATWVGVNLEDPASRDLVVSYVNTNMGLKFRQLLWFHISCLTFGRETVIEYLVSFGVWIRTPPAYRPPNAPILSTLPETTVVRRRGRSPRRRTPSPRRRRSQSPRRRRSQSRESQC
ASSAY_SUMMARY: Protein inhibition rate / EC50 (Table 1, no method described)
Assay type: biochemical
RECORDED_METRIC: inhibition at 30 µM (%)
Give the value in % but do not write % after it.

Use the examples below as a reference point.
1) COc1ccc(N(Cc2n[nH]c3c2CN(C(C)=O)CC3)C(=O)Nc2ccc(F)c(Cl)c2)cc1 | 77.8
2) CCc1cc(CN(C(=O)Nc2ccc(F)c(Cl)c2)c2ccc(OC)nc2)n[nH]1 | 94.7
3) O=C(Nc1ccc(F)c(Cl)c1)N(Cc1n[nH]c2c1CCCC2)c1nncs1 | 5
4) COc1ccc(N(Cc2n[nH]c3c2CC(C(=O)O)CC3)C(=O)Nc2ccc(F)c(Cl)c2)cn1 (centres unmarked) | 4

Memo: `COc1ccc(N(Cc2n[nH]cc2C)C(=O)Nc2ccc(F)c(Cl)c2)cn1` , reported inhibition at 30 µM: 86.4

Given item COc1ccc(N(Cc2n[nH]c3c2CCC3C)C(=O)Nc2ccc(F)c(Cl)c2)cn1 (centres unmarked) , the value recorded as its inhibition at 30 µM is 94.9

The compound `COc1ccc(N(Cc2n[nH]c3c2CCCC3)C(=O)Nc2ccc(F)c(Cl)c2)cc1` showed inhibition at 30 µM equal to 5

Lookup result for `COc1ccc(N(Cc2n[nH]c3c2COCC3)C(=O)Nc2ccc(F)c(Cl)c2)cc1` ; measured inhibition at 30 µM: 80

Note to self: inhibition at 30 µM recorded for `COc1ccc(N(Cc2cc(C)[nH]n2)C(=O)Nc2ccc(F)c(Cl)c2)cn1` was 94.3

Sample `COc1ccc(N(Cc2n[nH]c3ccccc23)C(=O)Nc2ccc(F)c(Cl)c2)cn1` ; inhibition at 30 µM observed: 96.7

Lab book: inhibition at 30 µM of `O=C(Nc1ccc(F)c(Cl)c1)N(Cc1n[nH]c2c1CCC2)c1ccon1` noted as 84.5

// recorded inhibition at 30 µM for `O=C(Nc1ccc(F)c(Cl)c1)N(Cc1n[nH]c2c1CCCC2)c1cc[nH]c(=O)c1` : 64.7

COc1ccc(N(Cc2n[nH]c3c2C2CCC3C2)C(=O)Nc2ccc(F)c(Cl)c2)cn1 (centres unmarked) yielded inhibition at 30 µM of 87.1

Lab note: `COc1ccc(N(Cc2ccn(C)n2)C(=O)Nc2ccc(F)c(Cl)c2)cc1` gave inhibition at 30 µM of 33.7

The recorded inhibition at 30 µM for `COc1ccc(N(Cc2cc(OC)[nH]n2)C(=O)Nc2ccc(F)c(Cl)c2)cn1` is 91.1

Reported inhibition at 30 µM for COc1ccc(N(Cc2n[nH]c3c2CC(CO)CC3)C(=O)Nc2ccc(F)c(Cl)c2)cn1 (centres unmarked) was 58

Recorded result, `O=C(Nc1ccc(F)c(Cl)c1)N(Cc1n[nH]c2c1CCC2)c1ccc(O)cc1` , inhibition at 30 µM: 74.6

----------
Overview of reported pIC50 across a group of molecules:
System: intracellular HBV DNA
ASSAY_SUMMARY: Real-time PCR for intracellular HBV DNA in HepAD38 cells
Assay type: cell-based
TEST_CONDITIONS: Hepatitis B virus, HePAD38, 65 h, 65 hours treatment
// returns pIC50 (minus log10 of molar concentration), number only

Solved cases below.
1) COC12CC(N(Cc3cc(C(F)(F)F)[nH]n3)C(=O)Nc3ccc(F)c(Cl)c3)(C1)C2 | 7.47
2) N#Cc1cc(N(Cc2n[nH]c3c2CCOC3)C(=O)Nc2ccc(F)c(Cl)c2)ccn1 | 6.47
3) COc1ncc(N(Cc2cc(C(F)(F)F)[nH]n2)C(=O)Nc2cc(Cl)c(F)cn2)cn1 | 7.30
4) COc1ncc(N(Cc2cc(C(F)(F)F)[nH]n2)C(=O)Nc2nc(Cl)cc(C)c2F)cn1 | 6.38

For reference, reported pIC50 for `COc1ccc(N(Cc2n[nH]cc2C)C(=O)Nc2ccc(F)c(Cl)c2)cn1` stands at 6.40

get_value(item= `C=C(C)c1c(CN(C(=O)Nc2ccc(F)c(Cl)c2)c2cnc(OC)nc2)n[nH]c1C(F)F` , readout=pIC50) returns 6.49

Please fill in: pIC50 reported for `COc1ccc(N(Cc2n[nH]c3c2CCC3)C(=O)Nc2ccc(F)c(Cl)c2)cn1` = 7.74

Noted for `COc1ncc(N(Cc2cc(C#N)[nH]n2)C(=O)Nc2ccc(F)c(C(F)F)n2)cn1` : its pIC50 reads 6.68

pIC50 for `COc1ccc(N(Cc2n[nH]c3c2CSCC3)C(=O)Nc2ccc(F)c(Cl)c2)cn1` is 7.92

In plain terms, `COc1ccc(N(Cc2cc(C(F)(F)F)[nH]n2)C(=O)Nc2ccc(F)c(C(F)F)c2)cn1` has a documented pIC50 of 7.80

Documented pIC50 of `COc1ncc(N(Cc2cc(C(F)(F)F)[nH]n2)C(=O)Nc2cccc(C(F)(F)F)n2)cn1` : 6.68

So, `COc1ncc(N(Cc2cc(C(F)(F)F)[nH]n2)C(=O)Nc2ccnc(C(F)F)c2F)cn1` ? Its pIC50 was 7.51

----------
Below, each of the compounds is paired with its reported IC50 value.
Test system: intracellular HBV DNA
ASSAY_SUMMARY: Real-time PCR for intracellular HBV DNA in HepAD38 cells
Type: cell-based
TEST_CONDITIONS: Hepatitis B virus, HePAD38, 65 h, 65 hours treatment
Value expressed in µM; do not type the unit.

1) COc1ncc(N(Cc2cc(C(F)(F)F)[nH]n2)C(=O)Nc2cccc(C(F)F)n2)cn1 | 0.1
2) COC(=O)c1ccc(N(Cc2n[nH]c3c2CCCC3)C(=O)Nc2ccc(F)c(Cl)c2)cc1 | 0.41
3) COc1ccc(N(Cc2n[nH]c3ccccc23)C(=O)Nc2ccc(F)c(Cl)c2)cn1 | 0.043
4) CCc1cc(CN(C(=O)Nc2ccc(F)c(Cl)c2)c2ccc(OC)nc2)n[nH]1 | 0.11
5) COc1cc(N(Cc2cc(C(F)(F)F)[nH]n2)C(=O)Nc2ccc(F)c(Cl)c2)ccn1 | 0.022

// next item, IC50 requested
Data point: `COc1cc(N(Cc2cc(C(F)F)[nH]n2)C(=O)Nc2ccc(F)c(C(F)F)c2)cnn1` ; IC50 = 0.028

----------
System: intracellular HBV DNA
ASSAY_SUMMARY: Real-time PCR for intracellular HBV DNA in HepAD38 cells
Type: cell-based
TEST_CONDITIONS: Hepatitis B virus, HePAD38, 65 h, 65 hours treatment
Attribute: pIC50
For clarity, pIC50 is expressed as the negative log10 of concentration in mol/L.

1. COc1ncc(N(Cc2cc(C(F)(F)F)[nH]n2)C(=O)Nc2ccnc(Br)c2F)cn1 | 7.68
2. COc1ncc(N(Cc2cc(C(F)(F)F)[nH]n2)C(=O)Nc2ccc(F)c(Cl)n2)cn1 | 6.92
3. COc1ncc(N(Cc2cc(C(F)(F)F)[nH]n2)C(=O)Nc2cc(C)c(F)c(Cl)n2)cn1 | 7.00
4. COc1ncc(N(Cc2cc(C(F)(F)F)[nH]n2)C(=O)Nc2ccc(C#N)c(F)c2)cn1 | 7.08
5. COc1ncc(N(Cc2n[nH]c(C(F)(F)F)c2CC(C)O)C(=O)Nc2ccc(F)c(Cl)c2)cn1 (stereo not shown) | 6.08

Now look at this entry.
Quick note, pIC50 for `O=C(Nc1ccc(F)c(Cl)c1)N(Cc1n[nH]c2c1CCC2)c1ccon1` landed at 7.16

----------
ASSAY_SUMMARY: Cell viability assay (EZ-Cytox), cytotoxicity
Format: cell-based
TEST_CONDITIONS: human, HepAD38 cells
RECORDED_METRIC: CC50 at 65 h

Examples with answers:
1. COC12CC(N(Cc3cc(C(F)(F)F)[nH]n3)C(=O)Nc3ccc(F)c(C(F)F)n3)(C1)C2 [Example 214] | > 100 µM
2. COc1ncc(N(Cc2cc(C(F)(F)F)[nH]n2)C(=O)Nc2cccc(C#N)n2)cn1 [Example 145] | > 100 µM
3. COc1cc(C)c(N(Cc2cc(C(F)(F)F)[nH]n2)C(=O)Nc2ccc(F)c(Cl)c2)c(C)c1 [Example 29] | 12.2 µM

// below: CC50 at 65 h requested for another molecule
Measured CC50 at 65 h, COc1ccc(N(Cc2cc(C)[nH]n2)C(=O)Nc2ccc(F)c(Cl)c2)cn1 [Example 50] : > 100 µM

----------
Test system: intracellular HBV DNA
ASSAY_SUMMARY: Real-time PCR for intracellular HBV DNA in HepAD38 cells
Assay type: cell-based
TEST_CONDITIONS: Hepatitis B virus, HePAD38, 65 h, 65 hours treatment
// boundary case: IC50 equal to 200 nM maps to No; strictly smaller maps to Yes

Below, 5 molecules whose answers are already recorded.
1. CC(C)(O)c1cc(N(Cc2n[nH]c3c2CCOC3)C(=O)Nc2ccc(F)c(Cl)c2)on1 | No
2. COc1ccc(N(Cc2cn(C)nc2C)C(=O)Nc2ccc(F)c(Cl)c2)cc1 | No
3. N#Cc1ccc(N(Cc2cc(C(F)F)[nH]n2)C(=O)Nc2ccc(F)c(Cl)c2)cn1 | No
4. COc1ncc(N(Cc2cc(C(F)(F)F)[nH]n2)C(=O)Nc2cc(F)c(F)c(F)n2)cn1 | No
5. COc1ncc(N(Cc2cc(C(F)(F)F)[nH]n2)C(=O)NC23CC(F)(C2)C3)cn1 | No

Please indicate whether the reported IC50 of `COc1cc(OC)cc(N(Cc2n[nH]c3c2CCCC3)C(=O)Nc2ccc(F)c(Cl)c2)c1` is strictly below 200 nM.
No

IC50 under 200 nM? Item: `Cn1cc(N(Cc2n[nH]c3c2CCCC3)C(=O)Nc2ccc(F)c(Cl)c2)cn1`
Yes

Threshold test, IC50 < 200 nM: `COc1ncc(NC(=O)N(Cc2cc(C(F)(F)F)[nH]n2)c2cnc(OC)nc2)cn1`
No

I wonder whether `COc1ncc(N(Cc2cc(C(F)(F)F)[nH]n2)C(=O)Nc2ccc(C#N)c(Cl)c2)cn1` has IC50 below 200 nM. Can you tell?
Yes

Is it true that IC50 reported for `O=C(Nc1ccc(F)c(Cl)c1)N(Cc1n[nH]c2c1CCCC2)c1ccon1` is less than 200 nM?
Yes

Is IC50 of `COc1ncc(N(Cc2cc(C(F)(F)F)[nH]n2)C(=O)Nc2cncnc2)cn1` strictly below 200 nM?
No

# TODO verify IC50 < 200 nM strictly for this molecule: `COc1ccc(N(Cc2cc(C(F)(F)F)[nH]n2)C(=O)Nc2ccc(F)c(F)c2)cn1`
Yes

Please indicate whether the reported IC50 of `COc1ncc(N(Cc2cc(C(F)(F)F)[nH]n2)C(=O)Nc2nc(F)ccc2F)cn1` is strictly below 200 nM.
No
